assay comment: Solubility test of curcumin in oils, surfactants, milk, BSA and casein
Assay type: physicochemical
assay setup: aqueous with cosolvent or surfactant or cyclodextrin, thermodynamic from solid; in TWEEN® 60 (100% conc); 37° C., 72 h; read-out: Solubility of Curcumin in surfactants, Sol
readout: solubility at 72 h (µg/mL)
Quick reminder: number only, in µg/mL, skip the unit.

*Q* # query: solubility at 72 h of entry COc1cc(/C=C/C(=O)/C=C(O)/C=C/c2ccc(O)c(OC)c2)ccc1O [Curcumin, curcumin]
*A* 34

----------
assay comment: Solubility test of curcumin in oils, surfactants, milk, BSA and casein
Assay type: physicochemical
assay setup: oil or lipid, thermodynamic from solid; in Lauroglycol; 37° C., 72 h; read-out: Solubility of Curcumin in oils, Sol
Description: The solubility of curcumin in a number of oils such as citronella oil, castor oil, ethyl oleate, and palm rose oil, coconut oil, CAPRYOL™ 90 and a number of surfactants such as TWEEN® 80, CREMOPHOR® EL, PEG 200 and TRANSCUTOL® HP were determined in order to find out the appropriate oils and surfactants as compositions of SNEDDS. Solubility was also determined in milk, BSA and casein. An excess amount of curcumin was added to 5 ml of oil or surfactant solutions. […]
readout: solubility at 72 h (µg/mL)
Respond with the bare value in µg/mL.

*Q* If you can, please state the reported solubility at 72 h value of "COc1cc(/C=C/C(=O)/C=C(O)/C=C/c2ccc(O)c(OC)c2)ccc1O" .
*A* 2610

The values you see were collected from patent US8835509B2.
